Reference source for all entries: paper PMC10674894

- Tested on: Vero cells
- assay-info: Cytotoxicity MTT assay in Vero cells (MNTD, CC50)
- Type: cell-based, African green monkey
- condition-info: Table S1; Vero cells
Property: MNTD; scope: individual compounds
Numbers only here, please. The scale is µM.

C/C(=N\NC(=O)c1ccncc1)c1ccccc1O [DCR49] :: 62.5

Please give the measured MNTD for this compound: CC(=O)Cc1noc(-c2ccccc2)n1 [DCR78]
125

Next: c1cncc(C2c3c(ccc4ccccc34)Oc3ccc4ccccc4c32)c1 [DCR121]
31.25

---

- System: Vero cells
- assay-info: Cytotoxicity MTT assay in Vero cells (MNTD, CC50)
- Assay type: cell-based, African green monkey
- condition-info: Table S1; Vero cells
quantity-measured: MNTD (µM)
Supply the numeric figure in µM, leaving out any unit text.

O=C(N/N=C/c1ccccc1[N+](=O)[O-])c1cccnc1 :: 31.25
N#Cc1cc(F)ccc1N1CCCCC1 :: 125
Nc1nc(N)c2ccccc2n1 :: 150
O=C(NNC(=O)c1ccc(Cl)cc1)c1ccncc1 [DCR11, N'-(4-chlorobenzoyl)isonicotinohydrazide] :: 31.25
O=C(N/N=C/c1ccccc1)c1cccnc1 [DCR14, (E)-N'-benzylidenenicotinohydrazide] :: 31.25

Kindly review the next molecule as well.
Request the reported MNTD associated with O=C(N/N=C/c1ccc(Cl)cc1Cl)c1cccnc1
31.25
